Hello, the source for this data is ChEMBL document CHEMBL2203123, in case you need it.

# Test system: Salmonella typhimurium
# ASSAY_TEXT: Genotoxicity against Salmonella typhimurium TA98 assessed as fold increase in revertants at 2.5 mg/ml after 90 mins by Ames MPF test in presence of S9 fraction relative to baseline
# Assay type: toxicity, organism-based
# STATED_CONDITIONS: salmonella enterica subsp. enterica serovar typhimurium, s9, 1.5 h
Kindly state fold change (FC) for each of the entries shown.
Give the value as a plain number.

Q: For the compound shown here, "Cn1nnnc1SCC(=O)N/N=C/c1ccccc1F" , give the reported fold change (FC).
Ans: 1.57

Q: Recorded fold change (FC) for "COc1ccc(/C=N/NC(=O)CSc2nnnn2C)cc1" , please?
Ans: 0.53

Q: Consider the compound shown here: "Cn1nnnc1SCC(=O)N/N=C/c1ccccc1[N+](=O)[O-]" What is its recorded fold change (FC)?
Ans: 2.22

Q: Fill blank: measured fold change (FC) of the compound "CN(C)c1ccc(/C=N/NC(=O)CSc2nnnn2C)cc1" is ____.
Ans: 1.14

Q: Fill blank: measured fold change (FC) of the compound "Cn1nnnc1SCC(=O)N/N=C/c1ccc(O)cc1" is ____.
Ans: 0.53
